B1: tRNA (parent)
chain: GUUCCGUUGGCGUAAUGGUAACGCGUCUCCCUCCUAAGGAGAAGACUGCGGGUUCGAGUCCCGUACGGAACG

- Variants of: B1
- experiment: yeast fitness relative to wild type (ratio to wild type); higher = fitter; tRNA-Arg(CCU), competitive growth, 37 C, YPD
Variants at the floor of the assay were thinned out.
Returns true if the recorded yeast fitness is greater than or equal to 0.6, and false otherwise.

I'd appreciate it if you could say whether C11U C31U G39C A40U has yeast fitness at least equal to 0.6.
false

I'd appreciate it if you could say whether A15U A57C has yeast fitness at least equal to 0.6.
true

I'd appreciate it if you could say whether U2C U26G A70U has yeast fitness at least equal to 0.6.
true

I'd appreciate it if you could say whether C4U C30G A36U C66A has yeast fitness at least equal to 0.6.
false

I'd appreciate it if you could say whether C11U C31G C49U G67A has yeast fitness at least equal to 0.6.
false

I'd appreciate it if you could say whether U8A G18C C24A U32C G52C G56A has yeast fitness at least equal to 0.6.
false

I'd appreciate it if you could say whether G10U C31U has yeast fitness at least equal to 0.6.
true

I'd appreciate it if you could say whether U2G C30U C46A has yeast fitness at least equal to 0.6.
true

I'd appreciate it if you could say whether C24U A43C has yeast fitness at least equal to 0.6.
true

I'd appreciate it if you could say whether G9C G12C C33U U35A has yeast fitness at least equal to 0.6.
false

I'd appreciate it if you could say whether C27A C66G A70C has yeast fitness at least equal to 0.6.
false

I'd appreciate it if you could say whether U3G U59C has yeast fitness at least equal to 0.6.
true

I'd appreciate it if you could say whether G12A A36U U54C has yeast fitness at least equal to 0.6.
false

I'd appreciate it if you could say whether G10A C33G A70U has yeast fitness at least equal to 0.6.
false

I'd appreciate it if you could say whether C29G C33A C34G has yeast fitness at least equal to 0.6.
false

I'd appreciate it if you could say whether C4G U13A U54A has yeast fitness at least equal to 0.6.
false

I'd appreciate it if you could say whether A15C C31A U59C G63A A69G has yeast fitness at least equal to 0.6.
false

I'd appreciate it if you could say whether U7G C29A C34A C62A has yeast fitness at least equal to 0.6.
false

I'd appreciate it if you could say whether U19A C49A has yeast fitness at least equal to 0.6.
true

I'd appreciate it if you could say whether G41A G48C G67C has yeast fitness at least equal to 0.6.
false

I'd appreciate it if you could say whether U19C C34U A43U G52C has yeast fitness at least equal to 0.6.
false
